Normal melting temperature: recorded values
conditions: Crystal 1; DTA
± gives the expanded uncertainty stated by the source.

COMPOUND: CCC[N+]1(C)CCOCC1.[Br-] [4-methyl-4-propylmorpholinium bromide]
Normal melting temperature: 180.79 ± 0.41 °C

COMPOUND: CCCCC[N+]1(C)CCOCC1.[Br-] [4-methyl-4-pentylmorpholinium bromide]
Normal melting temperature: 194 ± 0.41 °C

COMPOUND: CCCC[N+]1(C)CCOCC1.[Br-] [4-butyl-4-methylmorpholinium bromide]
Normal melting temperature: 211.32 ± 0.41 °C

COMPOUND: CCCCC[N+]1(C)CCCCC1.[Br-] [1-methyl-1-pentylpiperidinium bromide]
Normal melting temperature: 173.7 ± 0.41 °C

// provenance: the NIST ThermoML archive (doi:10.1016/j.jct.2016.03.030)
